Test system: Kv2.2
Construct: gene KCNB2
Test: channel inhibition in CHO cells transfected with pcDNA3.1a-Kv2.[…] (Supplementary Figure […])
Assay type: cell-based
Measurement Kind: IC50 (µM)
Give bare numbers, in µM.

Record request: IC50 value, item CCOC(=O)C1=C(C)N=c2sc(=Cc3ccc(O)c(OC)c3)c(=O)n2C1c1ccc(OC)c(OCC)c1 (stereo not shown)
13.5

Recorded values, source paper PMC4917657.
